tested on: P388 murine leukemia cells; assay: In vitro cytotoxicity, one-hour exposure, clonogenic survival of P388 cells; format: cell-based; settings: Mus musculus, read-out: in vitro cytotoxicity IC50, 1 hr exp.; P388, 1 hr exposure
Values of IC50 strictly less than 1 µM map to MET, and values of at least 1 µM map to NOT MET.

Consider the worked cases shown below.
Cc1cc(-c2c(F)cc3c4nn(C5CCCCCC5)c(=O)c-4cn(C4CC4)c3c2F)cc(C)n1    NOT MET
Cc1cc(-c2c(F)cc3c4nn(CCCN(C)C)c(=O)c-4cn(C4CC4)c3c2F)cc(C)n1    MET
Cc1cc(-c2c(F)cc3c4nn(C5CCCC5)c(=O)c-4cn(C4CC4)c3c2F)cc(C)n1    NOT MET

[in] hey, is IC50 for Cc1cc(-c2c(F)cc3c4nn(CCNC(C)(CO)CO)c(=O)c-4cn(C4CC4)c3c2F)cc(C)n1 lower than 1 µM or not?
[out] NOT MET

[in] hey, is IC50 for Cc1cc(-c2c(F)cc3c4nn(C5CCN(C)CC5)c(=O)c-4cn(C4CC4)c3c2F)cc(C)n1 lower than 1 µM or not?
[out] MET

[in] hey, is IC50 for Cc1cc(-c2c(F)cc3c4nn(C5CCCCC5)c(=O)c-4cn(C4CC4)c3c2F)cc(C)n1 lower than 1 µM or not?
[out] MET

[in] hey, is IC50 for CC(=O)N[C@H]1CC[C@@H](n2nc3c4cc(F)c(-c5cc(C)nc(C)c5)c(F)c4n(C4CC4)cc-3c2=O)CC1 [Example 52a] lower than 1 µM or not?
[out] NOT MET
